Test system: BMP-2 promoter
METHOD NOTES: ABA assay: BMP-2 promoter-luciferase reporter in 2T3-BMP-2-LUC osteoblast cells
Format: cell-based, mouse
TEST CONDITIONS: Experiment 1; 0.195312 μg/ml
Provide the reported % 59-0008 Response of each item.
The response must be a number in % with no trailing unit.

Please give the measured % 59-0008 Response for this compound: `CCC(C)(C)C(=O)O[C@H]1C[C@@H](C)C=C2C=C[C@H](C)[C@H](CC[C@@H]3C[C@@H](O)CC(=O)O3)[C@H]21`
29.030

Please give the measured % 59-0008 Response for this compound: `CC[C@H](C)C(=O)O[C@H]1CCC=C2C=C[C@H](C)[C@H](CC[C@@H]3C[C@@H](O)CC(=O)O3)[C@H]21`
25.840

Please give the measured % 59-0008 Response for this compound: CC(C)n1c(/C=C/C(O)CC(O)CC(=O)O)c(-c2ccc(F)cc2)c2ccccc21 (stereo not drawn)
36.820

Please give the measured % 59-0008 Response for this compound: `CC[C@H](C)C(=O)O[C@H]1C[C@@H](C)C=C2C=C[C@H](C)[C@H](CC[C@@H]3C[C@@H](O)CC(=O)O3)[C@H]21`
22.840

Please give the measured % 59-0008 Response for this compound: `CC[C@H](C)C(=O)O[C@H]1C[C@H](O)C=C2C=C[C@H](C)[C@H](CC[C@@H](O)C[C@@H](O)CC(=O)O)[C@H]21`
−4.390

Please give the measured % 59-0008 Response for this compound: CCC(C)(C)C(=O)O[C@H]1C[C@@H](C)C=C2C=C[C@H](C)[C@H](CC[C@@H](O)C[C@@H](O)CC(=O)O)[C@H]21 [Hydrolyzed simvastatin, hydrolyzed simvastatin]
−0.680

----------
Test system: BMP-2 promoter
METHOD NOTES: ABA assay: BMP-2 promoter-luciferase reporter in 2T3-BMP-2-LUC osteoblast cells
Type: cell-based, mouse
TEST CONDITIONS: Experiment 1; 0.195312 μg/ml
Provide the reported Fold increase over negative control of each item.
The response must be a number in fold with no trailing unit.

Please give the measured Fold increase over negative control for this compound: CCC(C)(C)C(=O)O[C@H]1C[C@@H](C)C=C2C=C[C@H](C)[C@H](CC[C@@H](O)C[C@@H](O)CC(=O)O)[C@H]21 [Hydrolyzed simvastatin, hydrolyzed simvastatin]
0.9

Please give the measured Fold increase over negative control for this compound: `CC[C@H](C)C(=O)O[C@H]1C[C@@H](C)C=C2C=C[C@H](C)[C@H](CC[C@@H]3C[C@@H](O)CC(=O)O3)[C@H]21`
2.011

Please give the measured Fold increase over negative control for this compound: `CC[C@H](C)C(=O)O[C@H]1CCC=C2C=C[C@H](C)[C@H](CC[C@@H]3C[C@@H](O)CC(=O)O3)[C@H]21`
2.144

Please give the measured Fold increase over negative control for this compound: `CC[C@H](C)C(=O)O[C@H]1C[C@H](O)C=C2C=C[C@H](C)[C@H](CC[C@@H](O)C[C@@H](O)CC(=O)O)[C@H]21`
0.807

Please give the measured Fold increase over negative control for this compound: CC(C)n1c(/C=C/C(O)CC(O)CC(=O)O)c(-c2ccc(F)cc2)c2ccccc21 (centres unmarked)
2.630
